Readings of IC50 for the listed molecules
Assayed system: hROMK (hKir1.1) (Homo sapiens)
Sequence (P48048 1-391): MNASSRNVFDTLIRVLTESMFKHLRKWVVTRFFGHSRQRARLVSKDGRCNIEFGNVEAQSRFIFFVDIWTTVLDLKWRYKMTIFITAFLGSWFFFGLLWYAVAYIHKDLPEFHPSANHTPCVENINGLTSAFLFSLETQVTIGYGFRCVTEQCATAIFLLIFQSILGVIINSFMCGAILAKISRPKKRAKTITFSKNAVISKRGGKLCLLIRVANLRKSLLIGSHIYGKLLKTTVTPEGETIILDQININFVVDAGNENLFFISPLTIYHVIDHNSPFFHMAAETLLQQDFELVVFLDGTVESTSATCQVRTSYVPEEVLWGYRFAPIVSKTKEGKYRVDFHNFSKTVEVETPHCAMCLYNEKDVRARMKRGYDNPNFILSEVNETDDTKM
Protocol: Thallium Flux Assay (ROMK channel functional thallium flux, FLIPR-Tetra)
Condition parameters: HEK293 cells stably expressing hROMK (hKir1.1); 30 min compound incubation
Measured parameter: IC50 (nM)

[
  {
    "Molecule": "CC1=C(N2CCC3(CCN(CCc4nnc(-n5cnnn5)cc4C)CC3F)C2=O)COC1=O (single isomer, unassigned) [Example 268]",
    "Assayed system": "hROMK (hKir1.1) (Homo sapiens)",
    "Measured parameter": "IC50",
    "Observed value": 10
  },
  {
    "Molecule": "CC1CC2(CC3CCC(C2)N3C[C@H](O)c2cnc(-n3cnnn3)cn2)C(=O)N1C1=CC(=O)OC1 (single isomer, unassigned) [Example 91]",
    "Assayed system": "hROMK (hKir1.1) (Homo sapiens)",
    "Measured parameter": "IC50",
    "Observed value": 30
  },
  {
    "Molecule": "O=C1C=C(N2C(=O)C3(CCN(C[C@H](O)c4cnc(-n5cnnn5)cn4)CC3)CC2C2CC2)CO1 (mixture of isomers) [Example 212]",
    "Assayed system": "hROMK (hKir1.1) (Homo sapiens)",
    "Measured parameter": "IC50",
    "Observed value": 120
  },
  {
    "Molecule": "CC1(O)CC2(CCN(C[C@H](O)c3ccc(-n4cnnn4)nn3)CC2)C(=O)N1C1=CC(=O)OC1 (stereo partly drawn)",
    "Assayed system": "hROMK (hKir1.1) (Homo sapiens)",
    "Measured parameter": "IC50",
    "Observed value": 560
  },
  {
    "Molecule": "CC1=C(N2CCC3(CCN(C[C@H](O)c4ccc(-n5cnnn5)nc4C)CC3F)C2=O)COC1=O (single isomer, unassigned) [Example 117]",
    "Assayed system": "hROMK (hKir1.1) (Homo sapiens)",
    "Measured parameter": "IC50",
    "Observed value": 50
  },
  {
    "Molecule": "CC1=C(N2CCC3(CCN(C[C@@H](O)c4ccc(-n5cnnn5)nn4)CC3F)C2=O)COC1=O (single isomer, unassigned) [Example 184]",
    "Assayed system": "hROMK (hKir1.1) (Homo sapiens)",
    "Measured parameter": "IC50",
    "Observed value": 70
  }
]
